Listing of recorded combination Emax by entry.
Tested on: NAMALWA (Burkitt's Lymphoma)
Protocol: combination Emax (second highest fraction inhibited in the dose matrix, 72 h); higher = more inhibition; extreme values may be limits of the assay
Provide a numeric answer; units are not to be included.

Entry under review: CN(CCO)CC[C@H](CSc1ccccc1)Nc1ccc(S(=O)(=O)NC(=O)c2ccc(N3CCC([C@@H](O)c4ccccc4-c4ccc(Cl)cc4)CC3)cc2)cc1S(=O)(=O)C(F)(F)F [AZD4320] + CCN(CCO)CCCOc1ccc2c(Nc3cc(CC(=O)Nc4cccc(F)c4)[nH]n3)ncnc2c1 [AZD2811] (first compound max 1 µM, 7x7, partner max 1 µM) . Reported combination Emax?
0.48

// repeat for Cn1cnc2c(F)c(Nc3ccc(Br)cc3Cl)c(C(=O)NOCCO)cc21 [Selumetinib] + CCN(CCO)CCCOc1ccc2c(Nc3cc(CC(=O)Nc4cccc(F)c4)[nH]n3)ncnc2c1 [AZD2811] (first compound max 10 µM, 7x7, partner max 1 µM) and report
0.336

// repeat for COc1nnc2ccc(N3CCC(c4ccc(OCCN5CCN(C)C(=O)[C@H]5C)cc4)CC3)nn12 [AZD5153] + Cn1cnc2c(F)c(Nc3ccc(Br)cc3Cl)c(C(=O)NOCCO)cc21 [Selumetinib] (first compound max 1 µM, 7x7, partner max 10 µM) and report
0.771

Others:
Entry under review: CC1(C)CCC(CN2CCN(c3ccc(C(=O)NS(=O)(=O)c4ccc(NCC5CCOCC5)c([N+](=O)[O-])c4)c(Oc4cnc5[nH]ccc5c4)c3)CC2)=C(c2ccc(Cl)cc2)C1 [Venetoclax] + CS(=O)(=O)CCNCc1ccc(-c2ccc3ncnc(Nc4ccc(OCc5cccc(F)c5)c(Cl)c4)c3c2)o1 [Lapatinib] (first compound max 1 µM, 7x7, partner max 10 µM) . Reported combination Emax?
0.25

// repeat for CN(CCO)CC[C@H](CSc1ccccc1)Nc1ccc(S(=O)(=O)NC(=O)c2ccc(N3CCC([C@@H](O)c4ccccc4-c4ccc(Cl)cc4)CC3)cc2)cc1S(=O)(=O)C(F)(F)F [AZD4320] + C[C@@H](Nc1cc(F)cc(F)c1)c1cc(C(=O)N(C)C)cc2c(=O)cc(N3CCOCC3)oc12 [AZD8186] (first compound max 1 µM, 7x7, partner max 3 µM) and report
0.573

// repeat for CC1(C)CCC(CN2CCN(c3ccc(C(=O)NS(=O)(=O)c4ccc(NCC5CCOCC5)c([N+](=O)[O-])c4)c(Oc4cnc5[nH]ccc5c4)c3)CC2)=C(c2ccc(Cl)cc2)C1 [Venetoclax] + CCN(CCO)CCCOc1ccc2c(Nc3cc(CC(=O)Nc4cccc(F)c4)[nH]n3)ncnc2c1 [AZD2811] (first compound max 1 µM, 7x7, partner max 1 µM) and report
0.56

// repeat for C[C@@H](Oc1cc(-c2cnn(C3CCNCC3)c2)cnc1N)c1c(Cl)ccc(F)c1Cl [Crizotinib] + CC1=C(C(=CC=C1)Cl)NC(=O)C2=CN=C(S2)NC3=CC(=NC(=N3)C)N4CCN(CC4)CCO [Dasatinib] (first compound max 10 µM, 7x7, partner max 2 µM) and report
0.934

---

Listing of recorded Bliss excess by entry.
Tested on: NCI-H3118 (Head and Neck Carcinoma);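 note: after 72 h of two-drug dosing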
Protocol: Bliss excess, mean over the matrix (fraction); higher = more synergy
Provide a numeric answer; units are not to be included.

Entry under review: COc1nnc2ccc(N3CCC(c4ccc(OCCN5CCN(C)C(=O)[C@H]5C)cc4)CC3)nn12 [AZD5153] + C=CCn1c(=O)c2cnc(Nc3ccc(N4CCN(C)CC4)cc3)nc2n1-c1cccc(C(C)(C)O)n1 [AZD1775] (first compound max 1 µM, partner max 1 µM) . Reported Bliss excess?
-0.0981
